Lab note - cut at 2 for logP: MET if strictly below, NOT MET if not.

Reference set, count: 3
- compound: "O=C(Cn1ccnc1[N+](=O)[O-])NCCO"
  category-label: "MET"
- compound: "CCCCCCOC(=O)N(C)SN(C)C(=O)ON=C(C)SC"
  category-label: "NOT MET"
- compound: "CCN(CC)c1nc(N(C)C)nc(N(C)C)n1"
  category-label: "NOT MET"

Field: below-cutoff. Rule: recorded logP strictly less than 2. Subject: `Clc1cccc(NC2=NCCN2)c1Cl`
MET

Problem: For the compound `O=C(COc1ccccc1)N1CCCCC1` , is logP under 2?
MET

Given `COc1cc(Cc2cnc(N)nc2N)cc(OC)c1C(C)C` , is recorded logP strictly lower than 2?
NOT MET

Regarding O=[N+]([O-])c1nccnc1NCC(O)CO (configuration not stated) , kindly confirm whether its logP is beneath 2.
MET

Consider `CCc1n[nH]c(=O)[nH]c1=O` . Does its logP lie strictly below 2?
MET

Please indicate whether the reported logP of `CCOC(=O)C(=Cc1ccc2c(c1)OCO2)C(C)=O` is strictly below 2.
NOT MET

Dear colleague, could you confirm whether logP of `CC(C)NC(=O)NN` falls below 2? Thanks.
MET

----------
measure: logP
Kindly provide the number alone.

The examples below pair each entry with its known result.
- compound: "COc1cc(Cc2cnc(N)nc2N)cc(OC)c1C(=O)CS(C)(=O)=O"
  logP: -0.31
- compound: "CC12CC3(C)CC(C)(C1)CC(N)(C2)C3"
  logP: 4.01
- compound: "CCCCCC[n+]1ccccc1.[Br-]"
  logP: -2.03
- compound: "NC(=O)c1cccc(OC(=O)CNC(=O)c2ccccc2)c1"
  logP: 1.2
- compound: "Nc1nc2ccccc2o1"
  logP: 1.53

Next item in the queue.
Query: logP; subject: `O=NN(CCCl)C(=O)NC1CCS(=O)(=O)CC1`
0.19

----------
This section presents compounds with their documented logP values.
Answer field: number only, no words.

- compound: "CCCCCCCCCCCCCCCC[n+]1cc(C)cc(C)c1.[I-]"
  logP: 3.35

What measured logP goes with `CC(=O)C(C#N)=NNc1cc(Cl)cc(Cl)c1` ?
4.68

Can you look up the measured logP of `CN1CCN=C1Nc1ncc([N+](=O)[O-])s1` for me?
1.8

Consider the compound shown here: `N#CCN(CC#N)N=O` What is its recorded logP?
0.04

----------
measure: logP
When you answer, write just the number.

Worked cases, answers included:
- compound: "COC1C(Cl)C(Cl)C(OC)C(Cl)C1Cl (stereo not drawn)"
  measure: "logP"
  reported-measurement: 3.15
- compound: "O=C(NC(CO)C(O)c1cccc([N+](=O)[O-])c1)C(Cl)Cl (stereo not drawn)"
  measure: "logP"
  reported-measurement: 1.15
- compound: "O=C(O)COc1ccc(Cl)c(C(=O)O)c1"
  measure: "logP"
  reported-measurement: 1.07
- compound: "CS(=O)(=O)Oc1ccccc1Cc1cnc(N)nc1N"
  measure: "logP"
  reported-measurement: 0.71

Item `O=S1(=O)NC(C2CC2)=Nc2cc(Cl)ccc21` has what recorded logP?
1.98

Using the record for `S=C1CCCCCCCN1` , report its logP.
1.44

Fill blank: measured logP of the compound `O=C1CCC(=O)N1c1cccc(Cl)c1` is ____.
0.98

Item `CCOC(=O)C(C#N)=NNc1cc(C(F)(F)F)ccc1Cl` has what recorded logP?
4.45

----------
measure: logP

- molecule: "COC12C(COC(N)=O)C3=C(C(=O)C(C)=C(Nc4ccccc4)C3=O)N1CC1NC12 (centres undefined)"
  reported-measurement: 1.3

Give its logP value. Item: `N#Cc1ccc(NC(=O)N=C(N)N)cc1Cl`
1.9

Recorded logP of `O=C(O)COc1ccccc1-c1ccccc1` , please.
2.83

What does the record list as logP for `Nc1nc(-c2ccccc2)c2ccccc2n1` ?
2.95

Need logP, item `CC(C)(C)CC1=Nc2ccc(Cl)cc2S(=O)(=O)N1`
2.71

I have this molecule here, `Cc1ccc(NC(=O)CN2CCCCC2)cc1` , and I need its recorded logP.
2.96

State the recorded logP for this entry: `CC1=Nc2cc([N+](=O)[O-])c(Cl)cc2S(=O)(=O)N1`
1.42

Give the measured logP of `Cc1nc(-c2ccccn2)no1` .
0.79

// query logP value for entry COC1C(Cl)C(Cl)C(Cl)C(OC)C1OC (centres undefined)
1.87

Entry `[Br-].c1ccc(C[n+]2cccc3ccccc32)cc1` : reported logP = ?
-0.82

Give the measured logP of `NC(=O)c1ccc(Cl)nn1` .
0

Param item = O=[N+]([O-])c1nccn1CC(O)COc1ccccc1 (centres undefined) ; retrieve measured logP.
1.43

Can you look up the measured logP of `O=[N+]([O-])c1cnc(N=C2SCCN2CCO)s1` for me?
1.28

Item `CCN(CC)CC(=O)NC1c2ccccc2-c2ccccc21` has what recorded logP?
3.64

----------
In this section, each of the molecules is paired with its reported logP.

- molecule: "OC(CN1CCCC1)c1ccccc1 (stereo not drawn)"
  logP: 1.38
- molecule: "O=S(=O)(Nc1cn[nH]c1)c1ccccc1"
  logP: 0.87
- molecule: "O=[N+]([O-])c1cnc(N=C2NCC(O)CN2)s1 (stereo not drawn)"
  logP: 0.74
- molecule: "O=C1CN=C(c2ccccc2Cl)c2cc(Cl)ccc2N1"
  logP: 3.15
- molecule: "CCN(CCOC(C)=O)c1ccccc1"
  logP: 2.04
- molecule: "CCN1C(=N)SC(=Cc2ccc([N+](=O)[O-])o2)C1=O"
  logP: 1.44
- molecule: "NC(=O)CCCCCn1nnc2ccccc21"
  logP: 0.79
- molecule: "CCCCC1OC(=O)c2cc([N+](=O)[O-])ccc21 (stereo not drawn)"
  logP: 2.92

Recorded logP for `CSC(C)=NOC(=O)N(C)SN(C)C(=O)c1cccc(C(F)(F)F)c1` , please?
2.5

Which logP value belongs to `COc1ccccc1C(=O)NCCCN(C)C` ?
1.27

What logP value was documented for this molecule, `CC(=O)NC1=C(Nc2ccccc2)C(=O)c2ccccc2C1=O` ?
1.73

----------
measure: logP

- compound: "CCCCN(SN(C)C(=O)ON=C(C)SC)C(=O)OC"
  logP: 2.5

What value of logP has been reported for the following compound? `[Br-].c1ccc(CC[n+]2ccccc2)cc1`
-2.35

# query: logP of entry `CCOP(=O)(OCC)Oc1ccc(SC)cc1C`
3.21

----------
In this section, each of the compounds is paired with its reported logP.
Output: the number by itself.

Worked set:
- compound: "O=NN(CCF)C(=O)NC1CCC(NC(=O)N(CCF)N=O)CC1 (stereo unspecified)"
  logP: 1.34
- compound: "CCCCNP(=O)(OC)Oc1cc(Cl)c(Cl)cc1Cl (stereo unspecified)"
  logP: 4.18
- compound: "O=NN1CCCN(N=O)CC1"
  logP: -0.51
- compound: "CN(C)C(=O)Cc1cccs1"
  logP: 0.65
- compound: "CCC(CC)(C(N)=O)c1ccc2c(c1)OCO2"
  logP: 1.59

What does the record list as logP for `O=C1CN=C(c2cccc(Cl)c2)c2cc(Br)ccc2N1` ?
3.63

----------
measure: logP
Form rule: numeric answer, no unit written next to it.

- compound: "O=NN(CCF)C(=O)NC1CSCSC1"
  reported-measurement: 1.54
- compound: "COP(=O)(OC)Oc1ccccc1"
  reported-measurement: 1.22

Reported logP for `CC1=C(C(N)=O)SCCO1` : what is it?
-0.22

Could you tell me which logP is on file for `CNC(=O)Oc1cccc(C(F)(F)F)c1` ?
2.37

----------
In this section, each of the molecules is paired with its reported logP.
Write the value as a bare number.

Some solved cases for reference:
- molecule: "COc1cc(-n2c(=O)cc(C)n2C)nc(C)n1"
  logP: 0.7
- molecule: "NC(=O)c1[nH]cnc1/N=N/N(CCO)CCO"
  logP: -1.09
- molecule: "CCNC1CC2CC1c1ccccc12 (configuration not stated)"
  logP: 2.72

Which value of logP has been reported for `CC(=O)Nc1cc(C(F)(F)F)cc(C(F)(F)F)c1Br` in the records?
3.51

What value of measured logP is listed for `CCC12CC3CC(N)(C1)CC(CC)(C3)C2` ?
4.36

For O=C1CC(C(=O)O)Oc2ccc(Cl)cc21 (configuration not stated) , what is its reported logP?
1.77

What logP value was documented for this molecule, `O=C1CCC(=O)N1c1ccccc1Br` ?
0.65

Entry `CCOP(=O)(OCC)Oc1ccc(SC)c(Cl)c1` : reported logP = ?
2.94

----------
measure: logP
Form field (numeric): enter value without unit.

Would you kindly share the measured logP for CC(=O)Nc1ccn(C2OC(COC(C)=O)C(OC(C)=O)C2OC(C)=O)c(=O)n1 (centres undefined) ?
-0.16

For the compound `COc1ccc(C2=NCC(=O)N(C)c3ccc(Cl)cc32)cc1` , what logP is on record?
3.15

Which logP reading was recorded for the compound `CN(C)c1ncnc2sccc12` ?
1.82
